The origin of these recorded values is patent US7446079B2.

Listed here are molecules together with their documented GC Abundance.
Experiment notes: GC-MS headspace release profile of Tropical Fruit perfume in shampoo, 1/100 dilution in water
Type: physicochemical
Condition details: headspace at 40 seconds
Procedure: A 10 gram sample of formulation and fragrance was added to an empty 1000 ml pyrex beaker. This beaker was then filled with 1000 ml of 120 F tap water. Beaker with diluted shampoo sample was then immediately placed into a semi-enclosed plexiglass chamber. Headspace Sampling: Once beaker was placed into chamber a Carboxan SPME field fiber was held at the top-side opening of the chamber over the beaker containing the sample. […]

[
  {
    "Molecule": "CCC(=O)OCc1ccccc1 [BENZYL PROPIONATE]",
    "GC Abundance": 6000
  },
  {
    "Molecule": "C=C(C)[C@H]1CC=C(C)CC1",
    "GC Abundance": 5000
  },
  {
    "Molecule": "C=CC(C)CCCC(C)(C)O (centres unmarked) [DIHYDROMYRCENOL]",
    "GC Abundance": 15000
  },
  {
    "Molecule": "CC(=O)OC1CCCCC1C(C)(C)C (centres unmarked)",
    "GC Abundance": 18000
  },
  {
    "Molecule": "C=CC(C)(O)CCC=C(C)C (centres unmarked)",
    "GC Abundance": 18000
  }
]
